These measurements were taken from patent US20230219969A1.

Target: 5HT2A (Homo sapiens)
Sequence (P28223 whole entry): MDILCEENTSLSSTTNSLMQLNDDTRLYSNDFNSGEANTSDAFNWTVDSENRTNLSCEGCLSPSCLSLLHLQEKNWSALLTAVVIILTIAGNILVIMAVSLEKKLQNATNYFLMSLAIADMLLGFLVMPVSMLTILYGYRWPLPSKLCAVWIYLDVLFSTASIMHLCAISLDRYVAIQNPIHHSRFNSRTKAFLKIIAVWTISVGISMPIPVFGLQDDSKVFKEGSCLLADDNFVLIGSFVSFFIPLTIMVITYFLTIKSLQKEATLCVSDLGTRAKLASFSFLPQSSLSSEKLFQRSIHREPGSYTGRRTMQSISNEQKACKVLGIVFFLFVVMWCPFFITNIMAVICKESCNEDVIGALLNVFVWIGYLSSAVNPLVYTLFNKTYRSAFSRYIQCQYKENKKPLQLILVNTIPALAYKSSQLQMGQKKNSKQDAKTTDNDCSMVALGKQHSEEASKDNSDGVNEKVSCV
Test: Serotonin 5-HT2A in vitro radioligand binding competition assay ([3H]-DOI)
Set-up: purchased Epics Therapeutics S.A. (Belgium) FAST-0505B
Settings: [3H]-DOI competition, membrane extracts; read-out: 5-HT2A Radioligand Binding Activity
READOUT_KIND: IC50

# LINE_NOTATION, MEASUREMENT_TARGET, IC50
records = [
    ("COc1ccc2c(c1)CCN2CCN(C)C", "5HT2A (Homo sapiens)", "> 10 µM"),
    ("C[C@@H](N)Cn1ccc2cncnc21", "5HT2A (Homo sapiens)", "> 10 µM"),
    ("Cc1cn(CC(C)(C)N(C)C)c2ccc(F)cc12", "5HT2A (Homo sapiens)", "> 10 µM"),
    ("Cc1cn(CC(C)(C)N)c2ccc(F)cc12", "5HT2A (Homo sapiens)", "1 to 10 µM"),
    ("COc1ccc2c(ccn2C[C@@H](C)N(C)C)n1", "5HT2A (Homo sapiens)", "> 10 µM"),
    ("COc1ccc2c(ccn2CC(C)(C)N)c1", "5HT2A (Homo sapiens)", "> 10 µM"),
]

Query for 5HT2A (Homo sapiens): what IC50 does the record show for `COc1cc2ccn(CCN(C)C)c2cn1` ? 1 to 10 µM

Give IC50 (5HT2A (Homo sapiens)) of the following compound: `COc1ccc2c(ccn2C(=O)CN(C)C)c1` > 10 µM

Under 5HT2A (Homo sapiens): IC50 value of `COc1ccc2c(ccn2C[C@@H](C)N)n1` ? > 10 µM

Fill in the recorded IC50 for this compound, with 5HT2A (Homo sapiens) as test system: `C[C@H](Cn1ccc2cnccc21)N(C)C` > 10 µM

Could you share what IC50 was measured for `COc1ccc2c(c1)CCN(CCN(C)C)C2` , tested on 5HT2A (Homo sapiens)? 0.101 to 1 µM

Lab note: need IC50 with 5HT2A (Homo sapiens) for entry `COc1ncc2c(ccn2CC(C)(C)N(C)C)n1` , please look it up. > 10 µM

Query for 5HT2A (Homo sapiens): what IC50 does the record show for `CN(C)CCn1ccc2cncnc21` ? 1 to 10 µM

Form field: IC50 recorded for `COc1ccc2c(ccn2[C@H]2C[C@H](N(C)C)C2)c1` with 5HT2A (Homo sapiens) (enter value) > 10 µM

Kindly state the measured IC50 obtained for `CN[C@H](C)Cn1ccc2cc(OC)ncc21` with 5HT2A (Homo sapiens). > 10 µM

5HT2A (Homo sapiens) / IC50 / `C[C@@H](N)Cn1ccc2cnccc21` : value? > 10 µM

Checklist item: IC50 tested on 5HT2A (Homo sapiens), entry `COc1ccc2c(ccn2[C@H]2C[C@@H](N(C)C)C2)c1` , value? > 10 µM

Give 5HT2A (Homo sapiens) IC50 for `COc1ccc2c(ccn2CC(C)(C)N(C)C)c1F` > 10 µM

Form: Entry = `CN(C)CC(=O)n1ccc2cc(F)ccc21` | System = 5HT2A (Homo sapiens) | IC50 = ____ > 10 µM

Param readout= IC50; system= 5HT2A (Homo sapiens); entry= `CN(C)CC(=O)n1ccc2ccccc21` ; returns value. > 10 µM

Request: IC50, test system 5HT2A (Homo sapiens), entry `CN(C)C(C)(C)Cn1ccc2ccc(F)cc21` > 10 µM

Checklist item: IC50 tested on 5HT2A (Homo sapiens), entry `COc1ccc2c(ccn2CCN(C)C)n1` , value? 0.101 to 1 µM

For the record `COc1ccc2c(ccn2CC(C)(C)N(C)C)n1` , what value of IC50 is listed for 5HT2A (Homo sapiens)? > 10 µM
